- system name: human TASK-1 (Homo sapiens (Human))
- assay info: Inhibition of recombinant TASK-1 in stably transfected CHO cells (voltage-sensitive dye, FLIPR)
- Assay type: cell-based
- run conditions: depolarization induced by 40 mM potassium chloride, Table 2A
- Experimental: B-2. Inhibition of Recombinant TASK-1 and TASK-3 In Vitro The investigations on the inhibition of the recombinant TASK-1 and TASK-3 channels were carried out using stably transfected CHO cells. […] 6 (5), 305-312 (2001); Molecular Devices FLIPR Application Note: Measuring membrane potential using the FLIPR® membrane potential assay kit on Fluorometric Imaging Plate Reader (FLIPR®) systems, http://www.moleculardevices.com/reagents-supplies/assay-kits/ion-channels/flipr-membrane-potential-assay-kits]. […]
pIC50: −log10 of the molar value.
Lab note: anything with pIC50 at or over 6 counts as true; the rest go in false.

Solved entries (count: 8):
{"molecule": "COc1ccccc1C(=O)N1CCN(Cc2c(-c3ccc(Br)cc3)nc3ccccn23)CC1 [Example 12]", "classification": "true"}
{"molecule": "COc1cccc(C(=O)N2CCN(Cc3c(-c4ccc(C(C)(C)C)cc4)nc4ccccn34)CC2)n1 [Example 64]", "classification": "true"}
{"molecule": "O=C(C1CCCCO1)N1CCN(Cc2c(-c3ccc(Cl)cc3)nc3ccccn23)CC1 (stereo not shown) [Example 30]", "classification": "false"}
{"molecule": "Cc1ccccc1C(=O)N1CCN(Cc2c(-c3ccc(Br)cc3)nc3ccccn23)CC1 [Example 14]", "classification": "true"}
{"molecule": "O=C(c1cccc(Cl)c1)N1CCN(Cc2c(-c3ccc(Cl)cc3)nc3ccccn23)CC1 [Example 36]", "classification": "true"}
{"molecule": "O=C(c1cc(F)ccc1Cl)N1CCN(Cc2c(-c3ccc(Br)cc3)nc3ccccn23)CC1 [Example 6]", "classification": "true"}
{"molecule": "O=C(c1cccc(OC(F)(F)F)n1)N1CCN(Cc2c(-c3ccc(Cl)cc3)nc3ccccn23)CC1 [Example 67]", "classification": "true"}
{"molecule": "CC(C)c1cccc(C(=O)N2CCN(Cc3c(-c4ccc(Cl)cc4)nc4ccccn34)CC2)c1 [Example 33]", "classification": "false"}

Decide: pIC50 of COc1ccc(Cl)c(C(=O)N2CCN(Cc3c(-c4ccc(Cl)cc4)nc4ccccn34)CC2)n1 [Example 43] >= 6? true

Evaluate COc1ccc(C)c(C(=O)N2CCN(Cc3c(-c4ccc(Cl)cc4)nc4ccccn34)CC2)n1 [Example 72] : pIC50 at minimum 6? true

Hi, just wondering whether Cc1ccc(-c2nc3ccccn3c2CN2CCN(C(=O)C3CCCC3)CC2)cc1 [Example 56] shows pIC50 of 6 or higher. true

Hi team, for COc1ccccc1C(=O)N1CCN(Cc2c(-c3ccc(C)cc3)nc3ccccn23)CC1 [Example 58] , is the recorded pIC50 at or above 6? false

Decide: pIC50 of COc1ccc(C)c(C(=O)N2CCN(Cc3c(-c4ccc(C(C)(C)C)cc4)nc4ccccn34)CC2)n1 [Example 73] >= 6? true

Please indicate if the recorded pIC50 for COc1ccc(Br)c(C(=O)N2CCN(Cc3c(-c4ccc(Cl)cc4)nc4ccccn34)CC2)n1 [Example 42] meets or exceeds 6. true

====

- system name: human TASK-1 (Homo sapiens (Human), UniProt O14649)
- Sequence (O14649 whole entry): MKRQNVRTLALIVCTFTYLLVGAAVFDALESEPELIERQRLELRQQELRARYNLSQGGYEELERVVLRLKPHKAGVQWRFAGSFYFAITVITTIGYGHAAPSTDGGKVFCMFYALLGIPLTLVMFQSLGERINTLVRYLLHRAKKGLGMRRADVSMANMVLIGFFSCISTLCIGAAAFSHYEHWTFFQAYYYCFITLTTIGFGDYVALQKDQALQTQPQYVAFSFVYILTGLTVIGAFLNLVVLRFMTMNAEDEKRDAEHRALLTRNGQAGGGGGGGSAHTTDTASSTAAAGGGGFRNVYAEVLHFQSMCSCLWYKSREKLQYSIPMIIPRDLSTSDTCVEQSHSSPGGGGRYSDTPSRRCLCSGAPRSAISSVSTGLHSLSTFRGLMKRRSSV
- assay info: Two-electrode voltage clamp analysis of human TASK-1 channels in Xenopus laevis oocytes
- Format: cell-based
- run conditions: Xenopus laevis oocytes, two-electrode voltage clamp, room temperature; Table 1A
Can you tell me log10 of IC50 for the items I'm about to list?
Friendly reminder: values = log10 of IC50, unit nM.

Worked cases, answers included:
{"smiles string": "COc1cccc(C(=O)N2CCN(Cc3c(-c4ccc(Cl)cc4)nc4ccccn34)CC2)n1", "readout": "log10 of IC50", "assay value": 0.62}
{"smiles string": "COc1cccc(C(=O)N2CCN(Cc3c(-c4ccc(Br)cc4)nc4ccccn34)CC2)n1", "readout": "log10 of IC50", "assay value": 0.69}
{"smiles string": "O=C(C1CCCC1)N1CCN(Cc2c(-c3ccc(Br)cc3)nc3ccccn23)CC1", "readout": "log10 of IC50", "assay value": 0.90}
{"smiles string": "O=C(c1ccccc1F)N1CCN(Cc2c(-c3ccc(Br)cc3)nc3ccccn23)CC1", "readout": "log10 of IC50", "assay value": 0.99}
{"smiles string": "CC(C)c1ccc(-c2nc3ccccn3c2CN2CCN(C(=O)C3CCCC3)CC2)cc1", "readout": "log10 of IC50", "assay value": 0.63}
{"smiles string": "O=C(C1CCCC1)N1CCN(Cc2c(-c3ccc(Cl)cc3)nc3ccccn23)CC1", "readout": "log10 of IC50", "assay value": 0.45}

Below are 2 compounds. Give each one its log10 of IC50.
1. COc1cccc(C(=O)N2CCN(Cc3c(-c4ccc(C(C)C)cc4)nc4ccccn34)CC2)n1
2. CC(C)Oc1cccc(C(=O)N2CCN(Cc3c(-c4ccc(Cl)cc4)nc4ccccn34)CC2)n1

1.65
1.13
